# tested.system: BMP-2-inducible protein kinase (Homo sapiens); also: in the data inactive means no Kd found up to 30 µM
# Sequence (Q9NSY1 whole entry): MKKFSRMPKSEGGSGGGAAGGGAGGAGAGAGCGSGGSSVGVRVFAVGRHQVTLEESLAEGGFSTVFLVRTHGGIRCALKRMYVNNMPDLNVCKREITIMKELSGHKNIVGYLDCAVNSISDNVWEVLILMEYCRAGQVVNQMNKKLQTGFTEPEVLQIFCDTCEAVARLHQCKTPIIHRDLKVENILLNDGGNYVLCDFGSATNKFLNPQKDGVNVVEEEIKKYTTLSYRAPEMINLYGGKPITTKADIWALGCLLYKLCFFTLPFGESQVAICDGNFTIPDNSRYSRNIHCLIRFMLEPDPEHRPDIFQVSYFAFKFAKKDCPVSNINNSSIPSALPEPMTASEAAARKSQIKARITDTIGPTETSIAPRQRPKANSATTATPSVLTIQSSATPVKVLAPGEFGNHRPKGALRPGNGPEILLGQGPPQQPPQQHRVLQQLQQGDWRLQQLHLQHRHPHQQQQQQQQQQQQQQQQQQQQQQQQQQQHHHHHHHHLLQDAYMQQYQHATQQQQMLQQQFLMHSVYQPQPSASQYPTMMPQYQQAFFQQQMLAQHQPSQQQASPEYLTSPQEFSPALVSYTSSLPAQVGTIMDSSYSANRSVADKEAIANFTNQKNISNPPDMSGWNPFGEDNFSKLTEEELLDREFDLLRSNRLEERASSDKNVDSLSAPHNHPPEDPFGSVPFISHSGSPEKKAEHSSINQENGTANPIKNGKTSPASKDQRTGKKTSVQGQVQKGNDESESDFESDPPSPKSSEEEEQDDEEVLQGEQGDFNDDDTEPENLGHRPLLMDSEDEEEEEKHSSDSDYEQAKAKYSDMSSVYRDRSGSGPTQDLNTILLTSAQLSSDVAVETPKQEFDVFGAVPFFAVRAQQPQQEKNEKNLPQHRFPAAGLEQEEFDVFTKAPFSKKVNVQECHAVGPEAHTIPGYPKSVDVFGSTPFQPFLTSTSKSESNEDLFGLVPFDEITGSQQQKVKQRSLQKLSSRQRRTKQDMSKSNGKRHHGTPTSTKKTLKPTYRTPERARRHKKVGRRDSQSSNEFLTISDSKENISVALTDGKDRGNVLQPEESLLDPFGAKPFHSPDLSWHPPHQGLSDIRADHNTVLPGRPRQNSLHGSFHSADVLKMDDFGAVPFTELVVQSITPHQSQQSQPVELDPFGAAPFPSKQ
Activity calls are given as the source filed them.
Your reply should match one of these outcome classes. active, inactive

>  <compound>
CC(=O)NCC(=O)N1[C@@H]2CC[C@H]1c1ccc(Nc3ncc(C(F)(F)F)c(NC4CCC4)n3)cc12 [PF-03814735]

>  <class.assignment>
active

$$$$
>  <compound>
C=CC(=O)Nc1cc2c(Nc3ccc(F)c(Cl)c3)ncnc2cc1C#CC(C)(C)N1CCN(C)CC1 [AV-412 FREE BASE]

>  <class.assignment>
inactive

$$$$
>  <compound>
C#Cc1cccc(Nc2ncnc3cc(OC)c(OCCCCCCC(=O)NO)cc23)c1 [CUDC-101]

>  <class.assignment>
inactive

$$$$
>  <compound>
CC(=O)c1cnc2ccc(-c3cc(Cl)c(O)c(Cl)c3)nc2c1N[C@H]1CC[C@H](CN(C)C)CC1

>  <class.assignment>
active

$$$$
>  <compound>
CO[C@H]1C[C@@H]2CC[C@@H](C)[C@@](O)(O2)C(=O)C(=O)N2CCCC[C@H]2C(=O)O[C@H]([C@H](C)C[C@@H]2CC[C@@H](OP(C)(C)=O)[C@H](OC)C2)CC(=O)[C@H](C)/C=C(\C)[C@@H](O)[C@@H](OC)C(=O)[C@H](C)C[C@H](C)/C=C/C=C/C=C/1C [RIDAFOROLIMUS]

>  <class.assignment>
inactive

$$$$
>  <compound>
CC(C)(C)c1nc(-c2cccc(NS(=O)(=O)c3c(F)cccc3F)c2F)c(-c2ccnc(N)n2)s1 [DABRAFENIB]

>  <class.assignment>
inactive

$$$$
>  <compound>
COCC(=O)NC/C=C/c1ccc2ncnc(Nc3ccc(Oc4ccc(C)nc4)c(C)c3)c2c1 [CP-724714]

>  <class.assignment>
inactive

$$$$
>  <compound>
CN(C[C@@H]1COCCO1)S(=O)(=O)Nc1ccc2ccc3ncc(-c4cnn(C)c4)cc3c(=O)c2c1 [MK-2461]

>  <class.assignment>
inactive

$$$$

I would be grateful if you could indicate the recorded call for CNC(=O)c1nn(C)c2c1C(C)(C)Cc1cnc(Nc3ccc(N4CCN(C)CC4)cc3)nc1-2 [MILCICLIB] .
inactive

For CN1C/C=C/CCOc2cccc(c2)-c2ccnc(n2)Nc2cccc(c2)C1 [ZOTIRACICLIB] , which call appears in the assay record?
inactive

Answer briefly: the call reported for C[C@@H](NC(=O)c1ncnc(N)c1Cl)c1ncc(C(=O)Nc2cc(C(F)(F)F)c(Cl)cn2)s1 [TOVORAFENIB] in this assay.
inactive

Record request — test call for CCS(=O)(=O)c1cccc(-c2cc(C(=O)NC3CCN(C)CC3)c(C)c3[nH]c4ncc(C)cc4c23)c1 [TAK-901]
active

Would you mind telling me which call this test gave C[C@@H](N)c1ccc(C(=O)Nc2ccnc3[nH]ccc23)cc1 [Y-39983] ?
active

Identify the outcome logged in this assay for the compound shown: N#CC1(c2ccc(NC(=O)c3cccnc3NCc3ccncc3)cc2)CCCC1 [RIVOCERANIB]
inactive

Any idea what this test logged for Cc1nc(Nc2n[nH]c3c2CN(C(=O)N[C@H](CN(C)C)c2ccccc2)C3(C)C)c2sccc2n1 [PF-03758309] ?
active

###

# tested.system: Very long-chain specific acyl-CoA dehydrogenase, mitochondrial (Homo sapiens); also: in the data inactive means no Kd found up to 30 µM
# Sequence (P49748 whole entry): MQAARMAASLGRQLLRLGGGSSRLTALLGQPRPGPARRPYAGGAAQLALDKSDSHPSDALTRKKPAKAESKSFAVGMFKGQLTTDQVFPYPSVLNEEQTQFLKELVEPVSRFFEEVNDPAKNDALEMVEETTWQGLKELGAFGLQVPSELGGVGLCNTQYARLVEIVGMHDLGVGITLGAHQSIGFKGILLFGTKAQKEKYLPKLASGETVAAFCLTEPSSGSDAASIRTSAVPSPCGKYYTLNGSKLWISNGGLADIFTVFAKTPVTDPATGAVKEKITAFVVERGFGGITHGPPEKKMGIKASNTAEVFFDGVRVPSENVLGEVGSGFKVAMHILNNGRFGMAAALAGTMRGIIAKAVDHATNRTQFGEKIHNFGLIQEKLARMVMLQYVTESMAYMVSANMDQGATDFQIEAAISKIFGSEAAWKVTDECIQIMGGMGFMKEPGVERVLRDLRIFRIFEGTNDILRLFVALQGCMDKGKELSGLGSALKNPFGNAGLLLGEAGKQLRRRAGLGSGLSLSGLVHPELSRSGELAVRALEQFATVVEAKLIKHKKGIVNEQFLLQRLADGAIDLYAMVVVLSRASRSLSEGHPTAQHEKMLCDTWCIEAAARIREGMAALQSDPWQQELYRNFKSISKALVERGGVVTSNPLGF
The source made the active and inactive calls.
Listing: Kd of selected compounds

Some compounds with known Kd results, for comparison:
>  <compound>
Cc1cc(Nc2ncc(Cl)c(Nc3ccccc3S(=O)(=O)C(C)C)n2)c(OC(C)C)cc1C1CCNCC1

>  <Kd>
> 30 µM (inactive)

$$$$
>  <compound>
O=C(Cc1ccc(-c2ccc(OCCN3CCOCC3)cc2)cn1)NCc1ccccc1

>  <Kd>
> 30 µM (inactive)

$$$$
>  <compound>
O=C1NC(=O)[C@@H](c2cn3c4c(cccc24)CCC3)[C@@H]1c1c[nH]c2ccccc12 [TIVANTINIB]

>  <Kd>
> 30 µM (inactive)

$$$$
>  <compound>
CC(=O)c1cnc2ccc(-c3cc(Cl)c(O)c(Cl)c3)nc2c1N[C@H]1CC[C@H](CN(C)C)CC1

>  <Kd>
> 30 µM (inactive)

$$$$

Field: Kd (Very long-chain specific acyl-CoA dehydrogenase, mitochondrial (Homo sapiens)). Entry: "CCS(=O)(=O)c1cccc(-c2cc(C(=O)NC3CCN(C)CC3)c(C)c3[nH]c4ncc(C)cc4c23)c1"
> 30 µM (inactive)

Observed Kd on Very long-chain specific acyl-CoA dehydrogenase, mitochondrial (Homo sapiens) for "C[C@@H](NC(=O)c1ncnc(N)c1Cl)c1ncc(C(=O)Nc2cc(C(F)(F)F)c(Cl)cn2)s1" , please.
> 30 µM (inactive)

Give recorded Kd with Very long-chain specific acyl-CoA dehydrogenase, mitochondrial (Homo sapiens) for the following compound: "COc1c(OCCCN2CCOCC2)ccc2c1N=C(NC(=O)c1cnc(N)nc1)N1CCN=C21"
> 30 µM (inactive)

Kd of "COc1ncc(-c2ccc3nccc(-c4ccnnc4)c3c2)cc1NS(=O)(=O)c1ccc(F)cc1F" on Very long-chain specific acyl-CoA dehydrogenase, mitochondrial (Homo sapiens)?
> 30 µM (inactive)

###

# tested.system: Platelet-derived growth factor receptor beta (Homo sapiens); also: in the data inactive means no Kd found up to 30 µM
# Sequence (P09619 whole entry): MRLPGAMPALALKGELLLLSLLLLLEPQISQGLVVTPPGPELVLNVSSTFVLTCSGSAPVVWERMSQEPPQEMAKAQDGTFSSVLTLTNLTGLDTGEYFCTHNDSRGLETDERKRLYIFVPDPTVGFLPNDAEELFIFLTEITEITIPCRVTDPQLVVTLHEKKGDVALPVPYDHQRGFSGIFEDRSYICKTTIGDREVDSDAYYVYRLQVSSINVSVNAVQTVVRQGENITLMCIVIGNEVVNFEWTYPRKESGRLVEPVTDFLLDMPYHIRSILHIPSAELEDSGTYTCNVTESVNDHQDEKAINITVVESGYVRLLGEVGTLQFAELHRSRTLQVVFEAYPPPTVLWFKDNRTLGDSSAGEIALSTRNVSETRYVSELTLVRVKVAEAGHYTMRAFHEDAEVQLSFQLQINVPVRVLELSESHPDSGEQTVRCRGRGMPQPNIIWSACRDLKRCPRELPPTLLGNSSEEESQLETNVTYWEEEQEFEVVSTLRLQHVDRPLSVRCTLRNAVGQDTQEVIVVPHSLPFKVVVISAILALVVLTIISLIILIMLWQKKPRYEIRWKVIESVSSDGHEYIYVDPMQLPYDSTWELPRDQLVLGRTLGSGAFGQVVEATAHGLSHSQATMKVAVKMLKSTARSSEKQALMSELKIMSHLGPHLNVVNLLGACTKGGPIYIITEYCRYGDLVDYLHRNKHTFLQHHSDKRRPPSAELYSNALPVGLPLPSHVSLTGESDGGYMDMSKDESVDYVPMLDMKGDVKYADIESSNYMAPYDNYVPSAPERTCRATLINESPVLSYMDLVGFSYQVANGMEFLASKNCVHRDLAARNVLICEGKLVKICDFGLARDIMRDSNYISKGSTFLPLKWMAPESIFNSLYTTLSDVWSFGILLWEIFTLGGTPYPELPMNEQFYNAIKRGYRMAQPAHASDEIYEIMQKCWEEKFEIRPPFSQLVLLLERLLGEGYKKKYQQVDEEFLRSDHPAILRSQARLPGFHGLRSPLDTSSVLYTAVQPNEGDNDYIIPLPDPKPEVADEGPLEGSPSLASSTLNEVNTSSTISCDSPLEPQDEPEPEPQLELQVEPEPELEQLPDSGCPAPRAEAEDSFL
Structures can show the parent of a compound that is named as a salt. Calls of active or inactive are those of the source.
In this exercise, the only acceptable responses are active, inactive

As a guide, the following entries are already answered.
>  <molecule>
C[C@@H](Oc1cc(C(=O)Nc2ccc(C(=O)N3CCN(C)CC3)cc2)nnc1N)c1c(Cl)ccc(F)c1Cl

>  <class.assignment>
inactive

$$$$
>  <molecule>
Cc1cnc(NC(=O)Nc2cc(Br)c(C)cc2OC[C@@H]2CNCCO2)cn1 [RABUSERTIB]

>  <class.assignment>
inactive

$$$$
>  <molecule>
O=C1NC(=O)[C@@H](c2cn3c4c(cccc24)CCC3)[C@@H]1c1c[nH]c2ccccc12 [TIVANTINIB]

>  <class.assignment>
inactive

$$$$

Could you please tell me the result logged for C[C@@H](N)c1ccc(C(=O)Nc2ccnc3[nH]ccc23)cc1 [Y-39983] in this assay?
inactive

Outcome? Cc1cc(Nc2ncc(Cl)c(Nc3ccccc3S(=O)(=O)C(C)C)n2)c(OC(C)C)cc1C1CCNCC1 [CERITINIB]
inactive

Please state the recorded outcome for this molecule: COc1cc([C@@H]2c3cc4c(cc3[C@H](O)[C@H]3COC(=O)[C@@H]23)OCO4)cc(OC)c1OC [AXL-1717]
inactive

Hey, what did the test say about "CC(=O)c1cnc2ccc(-c3cc(Cl)c(O)c(Cl)c3)nc2c1N[C@H]1CC[C@H](CN(C)C)CC1" ?
active

What outcome does the record of this test show for CCn1c(C(=O)N(C2CC2)C2CC2)cc2c3c(ncn3C)c(Nc3cc(C)n(C)n3)nc21 [BMS-911543] ?
inactive

Hello, I am checking results. What call was entered for CCS(=O)(=O)N1CCN(c2ccc(Nc3ncc(C(N)=O)c(NC4CC4)n3)cc2)CC1 [Cerdulatinib Hydrochloride] ?
active

Fill in: this test's call for CCS(=O)(=O)c1cccc(-c2cc(C(=O)NC3CCN(C)CC3)c(C)c3[nH]c4ncc(C)cc4c23)c1 [TAK-901] is ___
active

What is the recorded call for this molecule in the test? Nc1ncnc2c1c(-c1cccc(OCc3ccccc3)c1)cn2[C@H]1C[C@@H](CN2CCC2)C1 [AEW-541]
inactive

GET /call?item= Cn1cnc2c(F)c(Nc3ccc(Br)cc3F)c(C(=O)NOCCO)cc21 [BINIMETINIB] returns the recorded outcome of this test.
inactive

Give the logged outcome of this assay for the following molecule: Cc1nc(NC(=O)N2CCC[C@H]2C(N)=O)sc1-c1ccnc(C(C)(C)C(F)(F)F)c1 [ALPELISIB]
inactive

So what was the verdict on FC(F)(F)c1ccc(/C=C/c2nc(COc3ccc(CCCCn4ccnn4)cc3)co2)cc1 [MUBRITINIB] in this test?
inactive

Give the logged outcome of this assay for the following molecule: N#CC1(c2ccc(NC(=O)c3cccnc3NCc3ccncc3)cc2)CCCC1 [RIVOCERANIB]
inactive

###

# tested.system: EKC/KEOPS complex subunit TP53RK (Homo sapiens, UniProt Q96S44); also: in the data inactive means no Kd found up to 30 µM
# Sequence (Q96S44 whole entry, one chain of several): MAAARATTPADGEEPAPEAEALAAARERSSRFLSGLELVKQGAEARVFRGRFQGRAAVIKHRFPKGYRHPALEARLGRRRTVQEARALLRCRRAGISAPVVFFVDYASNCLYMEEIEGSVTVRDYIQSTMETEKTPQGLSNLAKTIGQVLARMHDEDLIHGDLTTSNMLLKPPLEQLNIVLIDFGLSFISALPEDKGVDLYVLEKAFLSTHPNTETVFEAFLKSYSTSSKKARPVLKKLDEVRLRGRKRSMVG
The source made the active and inactive calls.
Pick from 1 for active, 0 for inactive when you respond.

>  <structure.notation>
CCOc1cc2ncc(C#N)c(Nc3ccc(F)c(Cl)c3)c2cc1NC(=O)/C=C/CN(C)C

>  <class.assignment>
0

$$$$
>  <structure.notation>
CNC(=O)c1nn(C)c2c1C(C)(C)Cc1cnc(Nc3ccc(N4CCN(C)CC4)cc3)nc1-2

>  <class.assignment>
0

$$$$
>  <structure.notation>
C=CC(=O)N1CCC[C@H](n2c(=O)n(-c3ccc(Oc4ccccc4)cc3)c3c(N)ncnc32)C1

>  <class.assignment>
0

$$$$
>  <structure.notation>
Cn1cc(-c2cnn3c(N)c(Br)c([C@@H]4CCCNC4)nc23)cn1

>  <class.assignment>
0

$$$$
>  <structure.notation>
CCCCCCCCCCCCCCCCCCOP(=O)([O-])OC1CC[N+](C)(C)CC1

>  <class.assignment>
0

$$$$
>  <structure.notation>
NC(=O)c1c(OCc2c(F)cc(Br)cc2F)nsc1NC(=O)NCCCCN1CCCC1

>  <class.assignment>
0

$$$$

Entry "CN1CCN(CCOc2cc(OC3CCOCC3)c3c(Nc4c(Cl)ccc5c4OCO5)ncnc3c2)CC1" : call = ?
0

Record lookup: outcome of this test for "NC(=O)Nc1cc(-c2cccc(F)c2)sc1C(=O)N[C@H]1CCCNC1" ?
0

For "O=C(NOCCO)c1cc(CN2OCCCC2=O)c(F)c(F)c1Nc1ccc(I)cc1F" , what call appears in the results of this test?
0

Hi, sorry to bother you, what did the test record for "COc1cc(Nc2ncc3c(n2)-c2ccc(Cl)cc2C(c2c(F)cccc2OC)=NC3)ccc1C(=O)O" ?
0

Which outcome was assigned to "C[C@@H](N)c1ccc(C(=O)Nc2ccnc3[nH]ccc23)cc1" in this test?
0

GET /call?item= "CNC(=O)c1cccc2cc(Oc3ccnc4cc(OCC5(N)CC5)c(OC)cc34)ccc12" returns the recorded outcome of this test.
0

State the result this test recorded for "COc1cc2ncnc(Oc3cccc(NC(=O)Nc4cc(C(C)(C)C(F)(F)F)on4)c3)c2cc1OC" .
0

// return assay outcome for "CO[C@H]1C[C@@H]2CC[C@@H](C)[C@@](O)(O2)C(=O)C(=O)N2CCCC[C@H]2C(=O)O[C@H]([C@H](C)C[C@@H]2CC[C@@H](OC(=O)C(C)(CO)CO)[C@H](OC)C2)CC(=O)[C@H](C)/C=C(\C)[C@@H](O)[C@@H](OC)C(=O)[C@H](C)C[C@H](C)/C=C/C=C/C=C/1C"
0

Assay outcome for "CC(=O)c1cnc2ccc(-c3cc(Cl)c(O)c(Cl)c3)nc2c1N[C@H]1CC[C@H](CN(C)C)CC1" : what was it?
1

Data provenance is ChEMBL document CHEMBL3991601.
